# measured_target: HLA-A*02:01 (Homo sapiens, UniProt P04439, D140Y/D185E/D98H/E176V/E277Q/G131W/G231S/I119V/I121R/I166T/I218V/L300P/L318F/N151K/N90K/P208A/P217A/Q86G/Q94H/R138H/R169H/T345S)
# assay_explanation: MHC binding assay (UV-ligand exchange, β2m ELISA, peptide exchange yield)
# condition_details: MHC class I binding score; binding to HLA-A*02:01 ranged by peptide exchange yield (UV-ligand exchange, β2m ELISA)
recorded_endpoint: Peptide exchange

Consider the following illustrative entries.
INSERT INTO measurements (substance, result) VALUES
  ('459 (ALITEVVRL; listed as Homo sapiens) [compound 459]', '″++″ (≧20% = ++)'),
  ('344 (YLQDQHLLLTV; listed as Homo sapiens) [compound 344]', '″+++″ (≧50% = +++)'),
  ('509 (FLFDTKPLIV; listed as Homo sapiens) [compound 509]', '″+++″ (≧50% = +++)'),
  ('216 (NLWEDPYYL; listed as Homo sapiens) [compound 216]', '″+++″ (≧50% = +++)');

Please look at the following substance next.
Looking up 431 (SLVNVVPKL; listed as Homo sapiens) [compound 431] , I found its Peptide exchange recorded as ″++″ (≧20% = ++)
